Values compiled from ChEMBL document CHEMBL4007473.

ASSAY PROCEDURE: AUC (0 to t) in Sprague-Dawley rat plasma at 10 mg/kg administered via oral gavage by LC/MS analysis
Format: ADME, organism-based
PROPERTY: AUC(0-t) (ng·h/mL)
Provide the reading as a plain figure in ng·h/mL.

Which AUC(0-t) value is on record for `CC#C[C@@H](CC(=O)O)c1ccc(OCc2cccc(-c3c(C)cc(OCCCS(C)(=O)=O)cc3C)c2)s1` ?
4420

---

ASSAY PROCEDURE: Cmax in Sprague-Dawley rat plasma at 1 mg/kg, iv by LC/MS analysis
Assay type: ADME, organism-based
Design: dose 1 mg/kg, route intravenous
PROPERTY: Cmax (ng/mL)
Provide only the numeric value, understood in ng/mL.

Which Cmax is listed for `CC#C[C@@H](CC(=O)O)c1ccc(OCc2cccc(-c3c(C)cc(OCCCS(C)(=O)=O)cc3C)c2)s1` ?
2180

---

ASSAY PROCEDURE: Half life in Sprague-Dawley rat plasma at 10 mg/kg administered via oral gavage by LC/MS analysis
Assay type: ADME, organism-based
PROPERTY: half-life (h)
Your answer is read as h, so omit the unit and give the number.

For the molecule `CC#C[C@@H](CC(=O)O)c1ccc(OCc2cccc(-c3c(C)cc(OCCCS(C)(=O)=O)cc3C)c2)s1` , what half-life is on record?
3.9
